Target: T1, Human CLDN6 (on 293T-CLDN6 cells) (human, UniProt P56747 1-220)
T1 construct: In the killing assay it was also endogenous on OVCAR3 and OV90 cells; also called Claudin 6
T1 sequence: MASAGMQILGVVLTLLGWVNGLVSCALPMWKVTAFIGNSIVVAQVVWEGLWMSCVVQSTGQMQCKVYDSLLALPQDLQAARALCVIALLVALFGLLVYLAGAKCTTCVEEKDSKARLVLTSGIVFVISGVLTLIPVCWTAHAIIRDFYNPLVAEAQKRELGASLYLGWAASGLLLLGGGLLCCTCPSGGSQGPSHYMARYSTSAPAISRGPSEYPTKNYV
Assay: flow cytometry on 293T-CLDN6 cells
measuredEndpoint: pEC50
Hey, just a heads up that pEC50 is the negative log base 10 of the concentration in molar.

query: Which value of pEC50 has been reported for humanized antibody H1 (scFv-huFc) (Fc fusion, Tested as scFv-huFc; not shown: human Fc (huFc)) scFv: EVQLVQSGAEVKKPGASVKVSCKASGYTFTGYYMNWVRQAPGQGLEWMGEINPATGSTTYNQKFKARVTITRDTSTSTAYMELSSLRSEDTAVYYCARRDYYYGSGFYAMDYWGQGTLVTVSSGGGGSGGGGSGGGGSDIQMTQSPSSLSASVGDRVTITCQASQSVSNNLNWYQQKPGKAPKLLIYGASKLEDGVPSRFSGSGSGTDFTFTISSLQPEDFATYYCLQHRYLWTFGQGTKVEIK in the records?
result: 6.32
